- ASSAY PROCEDURE: Selectivity index, ratio of ED50 for human BCA1 cells to ED50 for chloroquine-sensitive Plasmodium falciparum D6
- Type: toxicity, cell-based
- CONDITION SET: read-out: Ratio ED50
Quick reference for selectivity ratio among some compounds

- SMILES STR: "COc1ccc2cc1Oc1ccc(cc1)C[C@H]1c3cc(c(OC)cc3CCN1C)Oc1c(OC)c(OC)cc3c1[C@@H](C2)NCC3"
  selectivity ratio: 67
- SMILES STR: "COc1ccc2cc1Oc1ccc(cc1)C[C@H]1c3c(cc(OC)c(OC)c3Oc3cc4c(cc3OC)CCN[C@@H]4C2)CCN1C"
  selectivity ratio: 70
- SMILES STR: "COc1ccc2cc1Oc1ccc(cc1)C[C@H]1c3c(cc(OC)c(O)c3Oc3cc4c(cc3OC)CCN[C@@H]4C2)CCN1C"
  selectivity ratio: 73
- SMILES STR: "COc1ccc2cc1Oc1ccc(cc1)C[C@H]1c3cc(c(OC)cc3CCN1C)Oc1c(O)c(OC)cc3c1[C@@H](C2)N(C)CC3"
  selectivity ratio: 42
- SMILES STR: "COc1ccc2cc1Oc1ccc(cc1)C[C@H]1c3c(cc(OC)c(OC)c3Oc3cc4c(cc3OC)CCN(C)[C@@H]4C2)CCN1C"
  selectivity ratio: 20
- SMILES STR: "COc1ccc2cc1Oc1ccc(cc1)C[C@H]1c3c(cc4c(c3Oc3cc5c(cc3OC)CCN[C@@H]5C2)OCO4)CCN1C"
  selectivity ratio: 36
- SMILES STR: "COc1ccc2cc1Oc1ccc(cc1)C[C@H]1c3cc(c(OC)cc3CCN1C)Oc1c(OC)c(OC)cc3c1[C@@H](C2)N(C)CC3"
  selectivity ratio: 33

---

- ASSAY PROCEDURE: Selectivity index, ratio of ED50 for human HT1080 cells to ED50 for chloroquine-sensitive Plasmodium falciparum D6
- Assay type: toxicity, cell-based, HT-1080
- CONDITION SET: read-out: Ratio ED50

- COMPOUND: "COc1ccc2cc1Oc1ccc(cc1)C[C@H]1c3cc(c(OC)cc3CCN1C)Oc1c(O)c(OC)cc3c1[C@@H](C2)NCC3"
  selectivity ratio: 32
- COMPOUND: "COc1ccc2cc1Oc1ccc(cc1)C[C@H]1c3c(cc(OC)c(O)c3Oc3cc4c(cc3OC)CCN[C@@H]4C2)CCN1C"
  selectivity ratio: 110
- COMPOUND: "COc1ccc2cc1Oc1ccc(cc1)C[C@H]1c3c(cc4c(c3Oc3cc5c(cc3OC)CCN(C)[C@@H]5C2)OCO4)CCN1C [CEPHARANTHINE]"
  selectivity ratio: 44
- COMPOUND: "COc1ccc2cc1Oc1ccc(cc1)C[C@H]1c3c(cc4c(c3Oc3cc5c(cc3OC)CCN[C@@H]5C2)OCO4)CCN1C"
  selectivity ratio: 41

---

- ASSAY PROCEDURE: Selectivity index, ratio of ED50 for human MEL2 cells to ED50 for chloroquine-resistant Plasmodium falciparum W2
- Format: toxicity, cell-based
- CONDITION SET: read-out: Ratio ED50

- COMPOUND: "C=C[C@H]1CN2CC[C@H]1C[C@H]2[C@H](O)c1ccnc2ccc(OC)cc12"
  selectivity ratio: 649
- COMPOUND: "COc1ccc2cc1Oc1ccc(cc1)C[C@H]1c3c(cc4c(c3Oc3cc5c(cc3OC)CCN[C@@H]5C2)OCO4)CCN1C"
  selectivity ratio: 81
- COMPOUND: "COc1ccc2cc1Oc1ccc(cc1)C[C@H]1c3c(cc(OC)c(OC)c3Oc3cc4c(cc3OC)CCN(C)[C@@H]4C2)CCN1C"
  selectivity ratio: 93
- COMPOUND: "OC(c1cc(C(F)(F)F)nc2c(C(F)(F)F)cccc12)C1CCCCN1 (configuration not stated)"
  selectivity ratio: 7420
- COMPOUND: "COc1ccc2cc1Oc1ccc(cc1)C[C@H]1c3cc(c(OC)cc3CCN1C)Oc1c(O)c(OC)cc3c1[C@@H](C2)N(C)CC3"
  selectivity ratio: 65
- COMPOUND: "COc1ccc2cc1Oc1ccc(cc1)C[C@H]1c3cc(c(OC)cc3CCN1C)Oc1c(OC)c(OC)cc3c1[C@@H](C2)NCC3"
  selectivity ratio: 181
- COMPOUND: "COc1ccc2cc1Oc1ccc(cc1)C[C@H]1c3c(cc4c(c3Oc3cc5c(cc3OC)CCN(C)[C@@H]5C2)OCO4)CCN1C"
  selectivity ratio: 49

Hello, the source for this data is ChEMBL document CHEMBL1147331, in case you need it.
